biological target: Tyrosine-protein kinase ABL1 (Homo sapiens); settings: at 1 µM;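 further: reported values are mean percent inhibition of ABL1 kinase activity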
ENDPOINT_LABEL: inhibition
Please answer in the form of a number followed by its unit of measurement.

Recorded results for 5 compounds are shown here.
COC(=O)Nc1nc2ccc(Oc3ccc(NC(=O)Nc4cccc(Cl)c4)cc3)cc2[nH]1: 13.3%
Cc1ccc2c(-c3ccnc(Nc4ccccc4)n3)c(-c3ccc(F)cc3)nn2n1: 35.5%
COc1cc2c(cc1Nc1nc(Nc3ccsc3C(N)=O)c3cc[nH]c3n1)N(C(=O)CN(C)C)CCC2(C)C: 6.2%
CC(C)(CO)CNC(=O)c1ccc2c(c1)/C(=N/Nc1ccc(S(N)(=O)=O)cc1)C(=O)N2: 10.7%
O=C(O[C@H]1CN[C@H](C#Cc2cc3ncnc(Nc4ccc(Cc5ccccc5)cc4)c3s2)C1)N1CCOCC1: 0.2%

Your task in this section: give inhibition for each listed record.
1. O=C(Nc1n[nH]c2cc(-c3ccc(F)cc3)ccc12)C1CC1
2. N#Cc1c(NC(=O)CN2CCOCC2)sc2c1CCCC2
3. Cc1cccc(Nc2ncc(-c3ccccc3)o2)c1
4. CNC(=O)c1cncc(/C=C/c2ccccc2Cl)c1
5. COc1cc(Nc2nccc(Nc3ccc4c(C)n[nH]c4c3)n2)cc(OC)c1OC
6. COc1ccc(-c2oc3ncnc(N)c3c2-c2ccc(NC(=O)Nc3cc(C(F)(F)F)ccc3F)cc2)cc1

Response:
1: 40.4%; 2: 7.71%; 3: 14.2%; 4: 33.6%; 5: 69.7%; 6: 52.3%

----------
molecular target: Ribosomal protein S6 kinase beta-1 (Homo sapiens); conditions: at 0.1 µM;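 further: reported value is the mean inhibition of p70S6K1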
ENDPOINT_LABEL: inhibition (%)
Answers are plain numbers, in %.

CCN1CCC(CC(=O)Nc2n[nH]c3nnc(-c4cccc(F)c4F)cc23)CC1: 0.65
N#Cc1c(NC(=O)CN2CCOCC2)sc2c1CCCC2: 2.57
CCNC(=O)O[C@H]1CN[C@H](C#Cc2cc3ncnc(Nc4ccc(OCc5cccc(F)c5)c(Cl)c4)c3s2)C1: 1.69

# map each molecule to its inhibition
1. CNC(=O)c1cc(-c2ccc(F)cc2)cc(-c2ccc(S(=O)(=O)N3CCCC3)cc2)c1N
2. CCn1c(-c2nonc2N)nc2c(C#CC(C)(C)O)ncc(OC3CCNCC3)c21
3. NC(=O)c1sc(-n2cnc3ccc(C(F)(F)F)cc32)cc1OCc1ccccc1Br
4. CCn1c(-c2nonc2N)nc2ccccc21
5. COC(=O)Nc1nc2ccc(Oc3ccc(NC(=O)Nc4cccc(Cl)c4)cc3)cc2[nH]1
6. Nc1nc(-c2cccc(Cl)c2)c(-c2ccc3ncccc3n2)s1

Response:
1: 0.63; 2: 4.92; 3: 1.25; 4: 22.1; 5: 0.63; 6: 1.21

For every item in the list below, what is its measured inhibition?
1. CCN(CC)S(=O)(=O)c1ccc(OC)c(Nc2ncc(-c3ccccc3)o2)c1
2. COc1ccc2c(-c3ccnc(Nc4cccc(OC(F)(F)F)c4)n3)cnn2n1
3. FC(F)(F)c1cccc(-c2nn3ncccc3c2-c2ccnc(Nc3ccc4c(c3)OCCO4)n2)c1

Response:
1: 1.32; 2: 3.11; 3: 1.22

Record inhibition per entry; entries follow.
1. Cc1cccc2c1NC(=O)/C2=N\Nc1ccc(S(N)(=O)=O)cc1
2. CC(C)COC(=O)c1ccc2c(c1)/C(=C/Nc1ccc(S(N)(=O)=O)cc1)C(=O)N2
3. CS(=O)(=O)CCNCc1ccc(-c2ccc3ncnc(Nc4ccc(OCc5ccccc5)c(C(F)(F)F)c4)c3c2)o1

Response:
1: 1.66; 2: 3; 3: 1.21

----------
Target: Serine/threonine-protein kinase Sgk2 (Homo sapiens) (UniProt Q9HBY8);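 further: each value is a mean percent inhibition of SGK2 from the GSK PKIS kinase screen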
Sequence (whole entry): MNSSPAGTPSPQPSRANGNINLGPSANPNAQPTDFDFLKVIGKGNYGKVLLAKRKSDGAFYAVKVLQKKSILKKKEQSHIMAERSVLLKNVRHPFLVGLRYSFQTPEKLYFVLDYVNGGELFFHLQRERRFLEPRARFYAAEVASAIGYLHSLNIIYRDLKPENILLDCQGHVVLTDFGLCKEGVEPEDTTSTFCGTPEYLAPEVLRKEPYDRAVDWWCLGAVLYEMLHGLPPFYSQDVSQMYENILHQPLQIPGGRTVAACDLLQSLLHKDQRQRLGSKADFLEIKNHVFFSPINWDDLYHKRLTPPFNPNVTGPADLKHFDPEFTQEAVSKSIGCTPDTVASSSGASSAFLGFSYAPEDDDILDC
Conditions: at 0.1 µM
ENDPOINT_LABEL: inhibition (%)
Answers are plain numbers, in %.

Previously resolved entries follow.
CCN1CCC(CC(=O)Nc2n[nH]c3nnc(-c4cccc(F)c4F)cc23)CC1: -3.94
CC(C)(CO)CNC(=O)c1ccc2c(c1)/C(=N/Nc1ccc(S(N)(=O)=O)cc1)C(=O)N2: 0.65
COc1ccc2[nH]c3c4[nH]c5ccc(OC)cc5c4c4c(c3c2c1)C(=O)NC4=O: 16.6

Please state inhibition for every compound in the list that follows.
1. CCn1c(-c2nonc2N)nc2c(C#CC(C)(C)O)nc(OC[C@H](N)c3ccccc3)cc21
2. COc1cc2c(cc1Nc1nc(Nc3ccsc3C(N)=O)c3cc[nH]c3n1)N(C(=O)CN(C)C)CCC2(C)C

Response:
1: 5.31; 2: 2.95

----------
Consider the following molecules; for each one, report its inhibition.
target: Serine/threonine-protein kinase pim-2 (Homo sapiens); conditions: at 1 µM;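 further: each value is a mean of the inhibition measurements against the kinase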

COc1ccc(-c2nn3ncccc3c2-c2ccnc(Nc3ccc4c(c3)OCCO4)n2)cc1: 1.11%

Hi, could you look up inhibition for each item in my list?
1. CCn1c(-c2nonc2N)nc2cnc(Oc3cccc(NC(=O)c4ccc(N(C)C)cc4)c3)cc21
2. CN1CCC(n2cnc(-c3ccc(F)cc3)c2-c2ccnc(N)n2)CC1
3. O=C(Nc1n[nH]c2cc(-c3ccc(F)cc3)ccc12)C1CC1
4. COc1ccc2c(-c3ccnc(Nc4cccc(OC(F)(F)F)c4)n3)cnn2n1
5. c1cc(-c2cnn3nc(N4CCOCC4)ccc23)nc(NC2CC2)n1
6. CC(=O)Nc1cccc(C#Cc2cncnc2Nc2ccc(OCc3cccc(F)c3)c(Cl)c2)c1

Response:
1. 1.39%
2. 6.09%
3. 1.49%
4. 0.02%
5. 0.92%
6. 1.31%

----------
molecular target: cGMP-dependent protein kinase 1 (Homo sapiens) (UniProt Q13976); settings: at 1 µM;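 further: listed percent inhibition of PRKG1 is a mean value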
Sequence (Q13976 whole entry): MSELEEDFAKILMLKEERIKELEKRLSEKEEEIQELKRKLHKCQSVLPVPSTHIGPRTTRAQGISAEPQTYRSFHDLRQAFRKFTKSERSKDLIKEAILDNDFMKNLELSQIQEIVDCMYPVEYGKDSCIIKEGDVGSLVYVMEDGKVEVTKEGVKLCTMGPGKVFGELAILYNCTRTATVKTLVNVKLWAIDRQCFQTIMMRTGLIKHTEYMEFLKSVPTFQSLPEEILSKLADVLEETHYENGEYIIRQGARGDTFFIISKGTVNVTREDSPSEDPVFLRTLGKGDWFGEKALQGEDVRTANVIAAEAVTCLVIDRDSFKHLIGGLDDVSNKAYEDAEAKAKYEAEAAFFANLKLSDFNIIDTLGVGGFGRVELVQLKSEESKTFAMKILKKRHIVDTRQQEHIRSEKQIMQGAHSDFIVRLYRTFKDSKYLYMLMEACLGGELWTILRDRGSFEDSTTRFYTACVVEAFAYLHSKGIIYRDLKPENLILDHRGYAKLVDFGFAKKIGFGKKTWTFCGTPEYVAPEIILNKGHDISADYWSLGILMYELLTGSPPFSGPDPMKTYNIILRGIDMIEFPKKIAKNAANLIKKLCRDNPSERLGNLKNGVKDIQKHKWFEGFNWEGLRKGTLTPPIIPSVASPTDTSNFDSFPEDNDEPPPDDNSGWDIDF
ENDPOINT_LABEL: inhibition (%)
One number for each entry, in %.

Before answering, review these 3 worked examples.
CN1CCC(n2cnc(-c3ccc(F)cc3)c2-c2ccnc(Nc3ccccc3)n2)CC1: 3.29
COc1cc2ncn(-c3cc(OCc4ccccc4C(F)(F)F)c(C(=O)N(C)C)s3)c2cc1OC: 0.77
CS(=O)(=O)CCNCc1coc(-c2ccc3ncnc(Nc4ccc(OCc5ccccc5)cc4)c3c2)c1: 3.25

Would you be so kind as to report inhibition for each listed record?
1. COc1ccc(CNC(=O)c2ccc(-c3cc(-c4nnc(C)o4)ccc3C)cc2)cc1
2. Cc1cccc2c1NC(=O)/C2=N\Nc1ccc(S(N)(=O)=O)cc1

Response:
[3.68, 2.94]

----------
biological target: Mitogen-activated protein kinase 12 (Homo sapiens) (UniProt P53778); settings: at 0.1 µM
Sequence (P53778 whole entry): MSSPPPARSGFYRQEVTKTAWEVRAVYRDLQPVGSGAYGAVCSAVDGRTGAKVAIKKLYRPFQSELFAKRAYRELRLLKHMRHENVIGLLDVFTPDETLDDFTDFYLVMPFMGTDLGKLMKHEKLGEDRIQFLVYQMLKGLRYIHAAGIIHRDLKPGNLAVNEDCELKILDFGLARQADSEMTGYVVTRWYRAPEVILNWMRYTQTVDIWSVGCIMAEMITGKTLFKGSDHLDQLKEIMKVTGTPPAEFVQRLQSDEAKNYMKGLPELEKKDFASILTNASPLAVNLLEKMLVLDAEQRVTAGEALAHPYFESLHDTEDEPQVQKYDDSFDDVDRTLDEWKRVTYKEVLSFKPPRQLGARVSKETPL
Description: GSK_PKIS: P38gamma mean inhibition at 0.1 uM [Nanosyn]
Would you kindly list inhibition for each of these compounds?
Give bare numbers, in %.

CCN(CC)S(=O)(=O)c1ccc(OC)c(Nc2ncc(-c3ccccc3)o2)c1: -2.06
COc1cc(N2CCN(C(C)C)CC2)ccc1Nc1nc(Nc2ccc(F)cc2C(N)=O)c2cc[nH]c2n1: 0.86
Clc1ccc(-c2nn3ncccc3c2-c2ccnc(Nc3ccccc3)n2)cc1: 2.11
Cc1ccc2c(-c3ccnc(Nc4ccccc4)n3)c(-c3ccc(F)cc3)nn2n1: 0.48
O=C(O[C@H]1CN[C@H](C#Cc2cc3ncnc(Nc4ccc(Cc5ccccc5)cc4)c3s2)C1)N1CCOCC1: 1.75

Each compound below has a recorded value; state its inhibition.
1. c1ccc(-c2nc3n(c2-c2ccc4c(c2)OCO4)CCC3)nc1
2. CS(=O)(=O)CCNCc1ccc(-c2ccc3ncnc(Nc4ccc(OCc5ccccc5)c(C(F)(F)F)c4)c3c2)o1
3. COc1ccc(CNC(=O)c2ccc(-c3cc(-c4nnc(C)o4)ccc3C)cc2)cc1

Response:
1: 1.78; 2: 2.6; 3: 0.94

List reported inhibition for each of these compounds:
1. CCn1c(-c2nonc2N)nc2c(C#CC(C)(C)O)ncc(OC3CCNCC3)c21
2. COc1cc(/C=N/Nc2ncnc3[nH]ncc23)ccc1O
3. CN(C)CCOc1ccc(-c2nc(-c3ccncc3)c(-c3ccc4c(c3)CC/C4=N\O)[nH]2)cc1
4. CC(=O)Nc1cccc(C#Cc2cncnc2Nc2ccc(OCc3cccc(F)c3)c(Cl)c2)c1
5. CNC(=O)c1cccc(C#Cc2cncnc2Nc2ccc(OCc3cccc(F)c3)c(Cl)c2)c1
6. CCCN1CCC(c2ccc(Nc3nc(Nc4cc(F)ccc4C(N)=O)c4cc[nH]c4n3)c(OC)c2)CC1
7. CC(C)COC(=O)c1ccc2c(c1)/C(=C/Nc1ccc(S(N)(=O)=O)cc1)C(=O)N2

Response:
[2.41, 0.15, 1.54, 0.58, 0.07, 1.44, 0.22]
